test system: MDA-MB-435 melanoma; assay: NCI-60 one-dose screen, 48 h; settings: 10 µM unless noted
Compounds without any hit were thinned out: in the full panel of roughly 83,000, 20% have a hit. Activity calls are given as the source filed them. The calls were made as follows: active = growth percent below 10; inactive = the rest.
Give one outcome, nothing more. List: T for active, F for inactive

COc1cc(/C=C/C(=O)c2ccc(NC(=O)CSc3nnc(-c4cc(OC)c(OC)c(OC)c4)n3-c3ccccc3)cc2)cc(OC)c1OC
T
NC(=O)CN1C(=O)c2ccccc2C1=O
F
CCCn1cc(/C=N\N=C2\C(=O)Nc3ccc(C)cc32)c2ccccc21
T

Check the results log: what was the call for `C=C(C)[C@@H]1CC[C@]2(C(=O)OCCOCCOCC[P+](c3ccccc3)(c3ccccc3)c3ccccc3)CC[C@]3(C)[C@H](CC[C@@H]4[C@@]5(C)CC[C@H](OC(C)=O)C(C)(C)[C@@H]5CC[C@]43C)[C@@H]12` ? T

How about `COC(=O)[C@]1(C)CCC[C@]2(C)[C@H]3C[C@H]4C(C(C)C)=C[C@]3(CC[C@H]21)[C@@H]1C(=O)N(CCC#N)C(=O)[C@@H]14` ? F

Next compound up: CN(C)C(CNc1oc(-c2cccc3ccccc23)nc1C#N)c1ccco1 (configuration not stated) F

Please answer likewise for `C=C(C)[C@@H]1CC[C@]2(C(=O)O)CC[C@]3(C)[C@H](CC[C@@H]4[C@@]5(C)C[C@@H](CC#Cc6ccc(Cl)cc6)C(=O)C(C)(C)[C@@H]5CC[C@]43C)[C@@H]12` F

Same question for `C#C[C@@]1(O)[C@@H](CO)O[C@@H](n2cc(-c3ccco3)c3c(N)ncnc32)[C@@H]1O` please. F
